B1: LINE1-full (parent)
chain: UACGUAGGUGGUUUUCCCCUGAUAGUGCUAAGGGGGCCUGGAAGUUUGGACUGGGCAGAGCUCAACACAGCGUGGCAAAGUGGCUGUGGCUAGACUGCCUCUCUGGAUUCCUCGUCACUCAGCAGGGCAUCUCUGAGAGAAAUGCC

- Variants of: B1
- protocol_notes: self-cleavage, relative activity (ratio to wild type); higher = more cleavage; in vitro, sequencing; the parent is a self-cleaving ribozyme
Label rule, in plain words: self-cleavage of 0.7 and up is satisfied, under 0.7 is not satisfied.

Examples with answers:
UACGUAGGUGGUUUUCCCCUGAUAGUGCUAAGGGGGCCUGGAAGUUUGGACUGGGCGGAGCUCAACACAGCGUGGCAAAGUGGCUGUGGCAAGACUGCCUCUCUGGAUUCCUCGUCACUCAGCAGGGCAUCUCUGAGAGAAAUGCC [A57G U91A]: not satisfied
UACGUAGGUGGUUUUCCCCUGAUAGUGCUAAGGGGGCCUGGAAGUUUGGACUGGGCAGAGCUCAACACAGCGUGGCAAAGUGGCUGUGGCUAGACUGCCCCUCUGGAUUCCUCGUCACUCAGCAGUGCAUCUCUGAGAGAAAUGCC [U100C G126U]: satisfied
UACGUAGGUGGUUUUCCCCUGAUAGUGUUAAGGGGGCCUGGAAGUUUGGACUGGGCAGAGCUCAACACAGCGUGGCAAAGUGGCUGUGGCUAGACUGCCUCUCUGGAUUCCUCGUCACUCGGCAGGGCAUCUCUGAGAGAAAUGCC [C28U A121G]: not satisfied

Inquiry: Quick check, self-cleavage >= 0.7? UACGUAGGAGGUUUUCCCCUGAUAGUGCUAAGGGGGCCUGGAAGUUUGGACUGGGCAGAGCUCAACACAGCGUGGCAAAGUGGCUGUGGCUAGACUGCCUCUCUGGAUUCCUCGUCACUCAGCAGGUCAUCUCUGAGAGAAAUGCC [U9A G127U]
Reply text: satisfied

Inquiry: In plain terms: is recorded self-cleavage at least 0.7 for UACGUAGGUGGUUUUCCCCUGUUAGUGCUAAGGGGGCCUGGAAGUUUGGACUGGGCAGAGCUCAACACAGCGUGGCAAAGUGGCUGUGGCUAGACUGCCUCUCUGGAUUCCUCGUCACUCCGCAGGGCAUCUCUGAGAGAAAUGCC [A22U A121C] ?
Reply text: satisfied

Inquiry: Test whether the variant UACGUAGGUGGUUUUCCCCUGAUAGUGCUAAGGGGGCCUGGAAGUUUGGACUGGGCAGAGCUCAACACAGCGUGGCAAAGUGGCUGUGGCUAGUCUGCCUCUCUGGAUCCCUCGUCACUCAGCAGGGCAUCUCUGAGAGAAAUGCC [A94U U109C] records self-cleavage of 0.7 or higher.
Reply text: not satisfied

Inquiry: Could you tell me if the measured self-cleavage of UACGUAGGUGGUUUUCCCCUGAUAGUGCUAAGGGGGCCUGGAAGUUUGGACUGGGCAGAGCUCAACACAGCGUGGCAGAGUGGCUGUGGCUAGACUGCCUCUCUGGAUUCCUCGUCACUCAGCUGGGCAUCUCUGAGAGAAAUGCC [A78G A124U] reaches 0.7 or more?
Reply text: satisfied

Inquiry: Check if self-cleavage >= 0.7 (inclusive). Item: UACGUAGGUGGUUUUCCCCUGAUAGUGCUAAGGGGGCCUGGAAGUUUGGACUGGGCAGAGCUCAACCCAGAGUGGCAAAGUGGCUGUGGCUAGACUGCCUCUCUGGAUUCCUCGUCACUCAGCAGGGCAUCUCUGAGAGAAAUGCC [A67C C71A]
Reply text: not satisfied

Inquiry: Threshold query (self-cleavage >= 0.7) on UACGUAGGUGGUUUUCCCCUGAUAGUGCUAAGGGGGCCUGGAAGUUUGGACUGGGCAGAGCUCAACACAGCGUGACAAAGUGGCUGUGGCUAGACUGCCCCUCUGGAUUCCUCGUCACUCAGCAGGGCAUCUCUGAGAGAAAUGCC [G75A U100C]
Reply text: satisfied

Inquiry: Item UACGUAGGUGGUUUUCCCCUGAUAGAGCUAAGGGGGCCUGGAAGUUUGGACUGGGCAGAGCUCAACACAGCGUGGCAAAGUGGCUGUGGCUAGACUGCCCCUCUGGAUUCCUCGUCACUCAGCAGGGCAUCUCUGAGAGAAAUGCC [U26A U100C] with self-cleavage of 0.7 or above?
Reply text: satisfied

Inquiry: Kindly determine if self-cleavage recorded for UACGUAGGUGGUUUUCCCCUGAUAGUGCUAAGGGGGCCUGGAAGUUUGGACUGGGCAGAGCUCAACACAGCGUGGCAAAGUGGCUUUGGCUAGACUGCCUCUCUGGGUUCCUCGUCACUCAGCAGGGCAUCUCUGAGAGAAAUGCC [G86U A107G] is above or exactly 0.7.
Reply text: not satisfied

Inquiry: Does self-cleavage meet or surpass 0.7 for UACGUAGGAGGUUUUCCCCUGAUAGUGCUAAGGGGGCCUGGAAGUUUGGACUGGGCAGAGCUCAACACAGCGUGGCAAAGUGGCUGUGGCUAGACUGCCUCUCUGGAUUCCUAGUCACUCAGCAGGGCAUCUCUGAGAGAAAUGCC [U9A C113A] ?
Reply text: not satisfied

Inquiry: Is self-cleavage at least 0.7? Consider UACGUAGGUGGUUUUCCCCUGAUAGUGCUAAGGGGGCCUGGAAGUUUGGACUGGGCAGAGCUCAACACAGCGUGGCCAAGUGGCUGUGGCUAGACUGCCUCUCUGGAUUCCUCGUCACUCAGCAGGGCAUCUCUGAGAGAAGUGCC [A77C A142G]
Reply text: satisfied

Inquiry: Assess whether reported self-cleavage for UACGUAGGUGGUAUUCCCCUGAUAGUGCUAAGGGGGCCUGGAAGUUUGGACUGGGCAGAGCUCAACACAGCGUGGCAAAGAGGCUGUGGCUAGACUGCCUCUCUGGAUUCCUCGUCACUCAGCAGGGCAUCUCUGAGAGAAAUGCC [U13A U81A] sits at 0.7 or higher.
Reply text: satisfied

Inquiry: Is the recorded value of self-cleavage equal to or greater than 0.7 for this variant? UACGUAGGUGGUUUUCCCCUGAUAGUGCUAGGGGGGCCUGGAAGUUUGGACUGGGCAGAGCUCAACACAGCGAGGCAAAGUGGCUGUGGCUAGACUGCCUCUCUGGAUUCCUCGUCACUCAGCAGGGCAUCUCUGAGAGAAAUGCC [A31G U73A]
Reply text: satisfied
